assay text: label from the status in PepcDB records
quantity name: protein production

MKKFLFILSLFCVLSYAYELKLNANITALKLDKQNLYIGTDKGEILQYNIKDKSLKELLSLPKIKNYYGDDFAKIYNIDIFKHTLLILSEGDFGAKNLSFYKENLQIKKLEENSIIKAFFINENTYLLISIGSEIELIDKSLKNIKKFNFSHSSLNDAVLNEDKSRLIAGFESGEVELFDLKNWKMLKNYDKMHKDNIYQVDFKNNVILSCGTDRRIGVVKNEEQNFLQKDFLIYTCALSPSGEFAVYSDNEAGVSEVFSTSDFKPVKTFNNENLMSEFIIFLNNKDFIVSGFGDSIMFRSIDE; failed
MRIFKALLKMEFLLTKRQLANLIMAIGMPVAFFLFFSGFMGEGLTKAIEAIYVRNYMITMAGFSSLSFAFFTFPFSMKDDQLSNRMQLLRHSPVPMWQYYLAKIIRILFYYCLAITVVFLTGHILRQVSMPIEQWMQSFLLLLGGATCFIPFGLLVSYFKNTELMSMVANICYMSLAVLGGMWMPITMFPKWLQALSKLTPTYHLTQVILSPFANSFAGFSLIILIGYGIIMLVIAYLLSQKRHSI; failed
MAERTSDPAANDRFYFRQLLSGRDFAGADPIAQQMRNFAYFIGDRETGEAVVVDPAYAADELAAALEADGMRLAGVLVTHHHPDHVGGSMMGFTLKGVAELLEHRSVPVHVNSHEADWVSQVTGIARSELSAHEHGDTISVGAIDIELLHTPGHTPGSQCFLVDGRLVAGDTLFLEGCGRTDFPGGNVDDMFRSLQALAKLPGDPTVYPGHWYSAEPSAPLEEVKRSNYVYRASNLDQWRMLMGG; failed
